system: FGFR/KL-downstream targets Cyp24a1, Cyp27b1 and Egr1; test: Mouse kidney gene expression after FGF23 protein analogs (quantitative real time PCR); assay type: in vivo; details: WT mice, 0.5 mg/kg, 3 hours
Property Measured: kidney Cyp27b1 mRNA expression vs vehicle

Molecule	Reported Measurement
FGF23: FGF23^25-240, native protein (protein) YPNASPLLGSSWGGLIHLYTATARNSYHLQIHKNGHVDGAPHQTIYSALMIRSEDAGFVVITGVMSRRYLCMDFRGNIFGSHYFDPENCRFQHQTLENGYDVYHSPQYHFLVSLGRAKRAFLPGMNPPPYSQFLSRRNEIPLIHFNTPIPRRHTRSAEDDSERDPLNVLKPRARMTPAPASCSQELPSAEDNSPMASDPLGVVRGGRVNTHAGGTG	coordinate suppression
FGF23 A^188: FGF23^25-240, A^188 (protein) YPNASPLLGSSWGGLIHLYTATARNSYHLQIHKNGHVDGAPHQTIYSALMIRSEDAGFVVITGVMSRRYLCMDFRGNIFGSHYFDPENCRFQHQTLENGYDVYHSPQYHFLVSLGRAKRAFLPGMNPPPYSQFLSRRNEIPLIHFNTPIPRRHTRSAEDDSERAPLNVLKPRARMTPAPASCSQELPSAEDNSPMASDPLGVVRGGRVNTHAGGTG	coordinate suppression
FGF23 A^222: FGF23^25-240, A^222 (protein) YPNASPLLGSSWGGLIHLYTATARNSYHLQIHKNGHVDGAPHQTIYSALMIRSEDAGFVVITGVMSRRYLCMDFRGNIFGSHYFDPENCRFQHQTLENGYDVYHSPQYHFLVSLGRAKRAFLPGMNPPPYSQFLSRRNEIPLIHFNTPIPRRHTRSAEDDSERDPLNVLKPRARMTPAPASCSQELPSAEDNSPMASAPLGVVRGGRVNTHAGGTG	coordinate suppression

Where do the numbers come from? From patent US20230382966A1.
